# PROTOCOL SUMMARY: qHTS assay for identifying genotoxic compounds that show differential cytotoxicity against isogenic chicken DT40 cell lines with known DNA damage response pathways - Rev3 mutant cell line (AID 743014); also: nearly all actives have a fitted effect of over 55% in size
# RECORDED CONDITIONS: chicken DT40 Rev3-/- viability, CellTiter-Glo, 40 h; series mostly up to 68.4 µM
Records with an inconclusive call do not appear. The source made the active and inactive calls. Calls follow the shape of the dose curve; as a rule, active = well fitted cell-killing curve with a large enough effect in the repeat runs; inconclusive = weak or mixed curves, or effect the other way; inactive = no such curve, though single readings can be large or run the other way.
Could you please pick one outcome from this set? True (active), False (inactive)

Worked examples, 4 molecules total:
> print(dat)
                              smiles.string  classification
1  CCN(CC)CCOc1ccc2c(c1)C(=O)c1cc(OCCN(CC)CC)ccc1-2            True
2                    Nc1nc(N)c(-c2ccccc2)s1           False
3            CC(C)(C)c1cc(O)c(C(C)(C)C)cc1O            True
4                       C=C(C)C(=O)OCCN(C)C           False

Exercise: # fetch the recorded call for Cc1ccccn1 here
Solution: False

Exercise: Another molecule: CC(=O)N(O)CCCCCNC(=O)CCC(=O)N(O)CCCCCNC(=O)CCC(=O)N(O)CCCCCN
Solution: False

Exercise: Another molecule: CCCCCCCCCC=O
Solution: False

###

# PROTOCOL SUMMARY: qHTS assay to identify small molecule antagonists of the farnesoid-X-receptor (FXR) signaling pathway - cell viability counter screen (AID 743221); also: nearly all actives have a fitted effect of over 50% in size
# RECORDED CONDITIONS: FXR-bla HEK293T viability, CellTiter-Glo luminescence, 16 h; series mostly up to 62.6 µM
# Source text: National Center for Advancing Translational Sciences [NCATS] NIH Chemical Genomics Center [NCGC] U.S. Environmental Protection Agency [EPA] National Institutes of Environmental Health Sciences [NIEHS] National Toxicology Program [NTP] U.S. Food and Drug Administration [FDA] The farnesoid-X-receptor (FXR), a nuclear hormone receptor, is highly expressed in liver, intestine, kidney and adrenal cortex. Natural ligands of FXR are the bile acids (Cholic acid, Chenodeoxy cholic acid etc). […]
Records with an inconclusive call do not appear. Activity calls are given as the source filed them. Calls come from the whole dose curve; as a rule, active = well fitted cell-killing curve with a large enough effect in the repeat runs (not every such curve was filed as active); inconclusive = weak or mixed curves, or effect the other way; inactive = no such curve, though single readings can be large or run the other way.
Could you please pick one outcome from this set? active, inactive

> print(dat)
                                   molecule  classification
1  O=S1(=O)c2cccc3cccc(c23)N1CCCN1CCN(c2ccc(F)cc2)CC1        inactive

Exercise: # fetch the recorded call for COc1ccc(OC)c(OC)c1 here
Solution: inactive

Exercise: Another molecule: CCCC[C@H]1CN(CC2CCOCC2)C(=O)OC12CCN(C1(C)CCN(C(=O)c3c(C)ncnc3C)CC1)CC2
Solution: inactive

Exercise: Another molecule: CCN1CCC[C@H]1CNC(=O)c1c(OC)ccc(Br)c1OC
Solution: inactive

Exercise: Another molecule: CC(C)(C)C1CCCCC1O (stereo not given)
Solution: inactive

Exercise: Another molecule: CCCCCCCCCC=O
Solution: inactive

Exercise: Another molecule: Oc1ccc(Cc2ccccc2)cc1
Solution: inactive

Exercise: Another molecule: C[C@@H](C1=C(CCN(C)C)Cc2ccccc21)c1ccccn1
Solution: inactive

###

# PROTOCOL SUMMARY: qHTS assay to test for compound auto fluorescence at 590 nm (red) in HepG2 cell free culture (AID 720684)
# RECORDED CONDITIONS: cell-free medium autofluorescence, red 540/590 nm; series mostly up to 91.3 µM
Calls of active or inactive are those of the source. Calls follow the shape of the dose curve; as a rule, active = well fitted curve in the direction sought with a large enough effect in the repeat runs; inconclusive = weak or mixed curves; inactive = flat fitted curve, though single readings scatter.
MEASUREMENT KIND: fluorescence, % of Rose Bengal

Here are 4 compounds together with their reported answers.
> print(dat)
                                   compound  measured.result
1                     O=C(Cl)c1c(Cl)cccc1Cl         inactive
2  C#CCOC(=O)[C@@H](C)Oc1ccc(Oc2ncc(Cl)cc2F)cc1         inactive
3  CC(=O)/C=C/C1C(C)=CCCC1(C)C (stereo not drawn)         inactive
4                NC(N)=N/N=C/c1c(Cl)cccc1Cl         inactive

Next up:
Exercise: Look up fluorescence, % of Rose Bengal: Cc1cc(NC(=O)C(=O)O)cc(C)c1Oc1ccc(O)c2c1CCC2
Solution: inactive
